measurementTarget: T1, human GLP-1 receptor (human, UniProt P43220 24-463)
T1 construct: whole, on cells; Used as purified plasma membranes of the stably transfected BHK cell line, not as intact cells; also called hGLP-1
assayInfo: SPA, displacement of 125I-GLP-1(7-36)NH2 from hGLP-1R BHK membranes, low HSA (0.001%)
pIC50: −log10 of the molar value. Numbered stars: 1 amine (or outer) side, 2 acyl side, 3 side chain; on linkers, the order of the positions; unused ones are H or OH. Square brackets hold non-standard residues; d marks the D form. Side chains are listed from the residue outwards. Ends that are not written are not given here. * marks the point of attachment. Dodecanoyl(12-OPh(4-COOH)) = O=C(O)c1ccc(OCCCCCCCCCCCC(=O)*)cc1; Decanoyl(10-(4-HOOC-PhO)) = O=C(O)c1ccc(OCCCCCCCCCC(=O)*)cc1; d(γGlu) = O=C(O)[C@@H](CCC(=O)[*:2])N[*:1]; γGlu = O=C(O)[C@H](CCC(=O)[*:2])N[*:1]; C14 diacid = O=C(O)CCCCCCCCCCCCC(=O)*; AEEA = NCCOCCOCC(=O)O; Aib = CC(C)(N)C(=O)O
Cut-off 9 on pIC50, inclusive. At or above means 1.0; below means 0.0.

query: Given H[Aib]EGTK([AEEA-AEEA-γGlu-C14 diacid])TSDVSSYLEEQAARK([AEEA-AEEA-γGlu-C14 diacid])FIAHLVQGRG (also called 18) , state whether its pIC50 is at least 9.
result: 0.0

query: Exam item: decide whether the reported pIC50 for H[Aib]EGTFTSDVSSYLEK([AEEA-AEEA-γGlu-C14 diacid])QAVRK([AEEA-AEEA-γGlu-C14 diacid])FIAWLVRG is at least 9.
result: 1.0

query: Please tell me: is the binder HAEGTFTSDVSSYLEEQK([AEEA-AEEA-γGlu-C14 diacid])VRK([AEEA-AEEA-γGlu-C14 diacid])FIAHLVRGRG (also called 24) at or over 9 in terms of pIC50?
result: 0.0

query: # bool: pIC50 of `HAEGTFTSDVSSYLEEQAARK([AEEA-AEEA-γGlu-Decanoyl(10-(4-HOOC-PhO))])FIAWLVRGRK([AEEA-AEEA-γGlu-Decanoyl(10-(4-HOOC-PhO))])` >= 9
result: 1.0

query: Textbook exercise: given the entry `HAEGTFTSDVSSYLEGQAARK([AEEA-AEEA-γGlu-Decanoyl(10-(4-HOOC-PhO))])FIEWLVRGK([AEEA-AEEA-γGlu-Decanoyl(10-(4-HOOC-PhO))])GE` , state whether its pIC50 is greater than or equal to 9.
result: 1.0

query: Say whether HAEGTFTSDVSSYLEK([AEEA-AEEA-γGlu-C14 diacid])QAVRK([AEEA-AEEA-γGlu-C14 diacid])FIEWLVQGRG (also called 11) shows pIC50 of 9 or more.
result: 1.0

query: Does HAEGTFTSDVSSYLEGQAVRK([AEEA-AEEA-γGlu-Decanoyl(10-(4-HOOC-PhO))])FIEWLVRGK([AEEA-AEEA-γGlu-Decanoyl(10-(4-HOOC-PhO))])GQ (also called 12) have a reported pIC50 of at least 9?
result: 1.0

query: # check: pIC50 of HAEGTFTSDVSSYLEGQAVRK([γGlu-AEEA-AEEA-d(γGlu)-Decanoyl(10-(4-HOOC-PhO))])FIAWLVQGK([γGlu-AEEA-AEEA-d(γGlu)-Decanoyl(10-(4-HOOC-PhO))])G (also called 26) is greater than or equal to 9
result: 1.0

query: Test whether the binder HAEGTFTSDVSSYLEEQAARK([AEEA-AEEA-γGlu-Dodecanoyl(12-OPh(4-COOH))])FIEWLVRGK([AEEA-AEEA-γGlu-Dodecanoyl(12-OPh(4-COOH))])GEG (also called 32) records pIC50 of 9 or higher.
result: 1.0

query: Record HAEGTFTSDVSSYLEEQK([γGlu-AEEA-AEEA-C14 diacid])VRK([γGlu-AEEA-AEEA-C14 diacid])FIAWLVG (also called 30) ; criterion: pIC50 no lower than 9. Met?
result: 0.0

query: Determine whether this binder has pIC50 no lower than 9: `HAEGTFTSDVSSYLEEQAVRK([AEEA-AEEA-γGlu-Decanoyl(10-(4-HOOC-PhO))])FIAWLVRGRK([AEEA-AEEA-γGlu-Decanoyl(10-(4-HOOC-PhO))])`
result: 1.0

query: Kindly determine if pIC50 recorded for H[Aib]EGTFTSDVSSYLEK([AEEA-AEEA-γGlu-C14 diacid])QAARK([AEEA-AEEA-γGlu-C14 diacid])FIAHLVG (also called 19) is above or exactly 9.
result: 0.0

Data credit: patent US9266940
